Organism: Felis catus
Assay Overview: Compound was evaluated for positive inotropic activity in vitro on cat papillary muscle, expressed as the percent increase over base-line contractility at 1 x 10 e-4 M
Format: functional
Outcome Measure: Increase (%)
One number for each entry, in %.

Take a look at these entries with their results.
// returns reported Increase for input Nc1cc(-c2ccncc2)c[nH]c1=O
50

Field request: Increase | item: CN(C)C1CCc2[nH]c3c(ccc4[nH]ccc43)c2C1 (stereo not given)
15

What does the data say about its Increase? Entry: CN(C)C1CCc2c(c3ccc4ncccc4c3n2C)C1 (stereo not given)
69

Item under review: CN(C)C1CCc2[nH]c3cc(O)ccc3c2C1 (stereo not given) . Reported Increase?
50

Moving on to the next compound.
// Increase lookup, key: CN(C)C1CCc2[nH]c3c(ccc4ncccc43)c2C1 (stereo not given)
80
